- experimental.system: HLA-A*68:02
- test.method.notes: IEDB peptide-MHC binding, purified MHC/competitive/radioactivity; filed as Kd, often an IC50 or EC50 that approximates it; bounds were set here for any values at or beyond the usual limits of such assays
- assay.setup: source organism: Trypanosoma cruzi

sequence.data | display.unit | Kd
GLLPLFLLLG | µM | 7.59

----------
- experimental.system: HLA-A*24:03
- test.method.notes: IEDB peptide-MHC binding, purified MHC/competitive/fluorescence; filed as Kd, often an IC50 or EC50 that approximates it; bounds were set here for any values at or beyond the usual limits of such assays
- assay.setup: source organism: Entamoeba dispar SAW760
observed.property: Kd

sequence.data | value.observed
LMTHTWHAK | ≥ 20 µM

----------
- experimental.system: HLA-A*02:01
- test.method.notes: IEDB peptide-MHC binding, purified MHC/direct/fluorescence; filed as Kd, often an IC50 or EC50 that approximates it; bounds were set here for any values at or beyond the usual limits of such assays
- assay.setup: source organism: Amur virus
pKd: −log10 of the molar value.

sequence.data | experimental.system | pKd
SLFSLLPGV | HLA-A*02:01 | ≥ 9.00

----------
- experimental.system: HLA-C*05:01
- test.method.notes: IEDB peptide-MHC binding, purified MHC/direct/fluorescence; filed as Kd, often an IC50 or EC50 that approximates it; bounds were set here for any values at or beyond the usual limits of such assays
- assay.setup: source organism: Bifidobacterium longum DJO10A
observed.property: Kd (nM)

sequence.data | value.observed
LLDEPTNNL | 7

----------
- experimental.system: HLA-B*40:02
- test.method.notes: IEDB peptide-MHC binding, purified MHC/competitive/fluorescence; bounds were set here for any values at or beyond the usual limits of such assays
- assay.setup: source organism: Homo sapiens

sequence.data | IC50
SYMMDDLELI | ≥ 20 µM

----------
- experimental.system: HLA-B*44:03
- test.method.notes: IEDB peptide-MHC binding, purified MHC/competitive/radioactivity; filed as Kd, often an IC50 or EC50 that approximates it; bounds were set here for any values at or beyond the usual limits of such assays
- assay.setup: source organism: Mammarenavirus guanaritoense
pKd: −log10 of the molar value.

sequence.data | experimental.system | pKd
TEQFINYCL | HLA-B*44:03 | 6.38

----------
- experimental.system: HLA-A*69:01
- test.method.notes: IEDB peptide-MHC binding, purified MHC/competitive/fluorescence; filed as Kd, often an IC50 or EC50 that approximates it; bounds were set here for any values at or beyond the usual limits of such assays
- assay.setup: source organism: Cryptosporidium parvum Iowa II
pKd: −log10 of the molar value.

sequence.data | pKd
GFPFFIMPK | ≤ 4.70

----------
- experimental.system: HLA-A*31:01
- test.method.notes: IEDB peptide-MHC binding, purified MHC/competitive/fluorescence; filed as Kd, often an IC50 or EC50 that approximates it; bounds were set here for any values at or beyond the usual limits of such assays
- assay.setup: source organism: Mycobacterium tuberculosis variant bovis BCG str. Pasteur 1173P2

sequence.data | Kd [µM]
RIRSERPAF | 0.982

----------
- experimental.system: HLA-B*15:09
- test.method.notes: IEDB peptide-MHC binding, purified MHC/competitive/fluorescence; filed as Kd, often an IC50 or EC50 that approximates it; bounds were set here for any values at or beyond the usual limits of such assays
- assay.setup: source organism: Vaccinia virus WR
observed.property: Kd

sequence.data | experimental.system | observed.property | value.observed
YPAVINSNI | HLA-B*15:09 | Kd | ≥ 20 µM

----------
- experimental.system: HLA-B*46:01
- test.method.notes: IEDB peptide-MHC binding, purified MHC/competitive/fluorescence; filed as Kd, often an IC50 or EC50 that approximates it; bounds were set here for any values at or beyond the usual limits of such assays
- assay.setup: source organism: Choclo virus
pKd: −log10 of the molar value.

sequence.data | pKd
HWMDATFNI | ≤ 4.70

----------
- experimental.system: HLA-A*01:01
- test.method.notes: IEDB peptide-MHC binding, purified MHC/competitive/fluorescence; filed as Kd, often an IC50 or EC50 that approximates it; bounds were set here for any values at or beyond the usual limits of such assays
- assay.setup: source organism: Influenza A virus (A/swine/Finistere/127/99(H3N2))

sequence.data | experimental.system | display.unit | Kd
LASIDLKY | HLA-A*01:01 | µM | 3.46

----------
- experimental.system: HLA-A*11:01
- test.method.notes: IEDB peptide-MHC binding, purified MHC/direct/fluorescence; filed as Kd, often an IC50 or EC50 that approximates it; bounds were set here for any values at or beyond the usual limits of such assays
- assay.setup: source organism: Orthohantavirus andesense
observed.property: Kd

sequence.data | experimental.system | value.observed
EKLKKKSAF | HLA-A*11:01 | ≥ 20 µM

----------
- experimental.system: HLA-B*44:02
- test.method.notes: IEDB peptide-MHC binding, purified MHC/direct/fluorescence; filed as Kd, often an IC50 or EC50 that approximates it; bounds were set here for any values at or beyond the usual limits of such assays
- assay.setup: source organism: Giardia lamblia ATCC 50803

sequence.data | Kd
QHTRRVSVL | ≥ 20 µM

----------
- experimental.system: HLA-A*29:02
- test.method.notes: IEDB peptide-MHC binding, purified MHC/competitive/radioactivity; filed as Kd, often an IC50 or EC50 that approximates it; bounds were set here for any values at or beyond the usual limits of such assays
- assay.setup: source organism: SARS coronavirus Tor2
Decision: Kd beneath 700 nM gives T; Kd meeting or exceeding 700 nM gives F.

sequence.data | experimental.system | assigned.label
MEAQFLYLY | HLA-A*29:02 | T
GMEAQFLYLY | HLA-A*29:02 | T
HISRQRLTKY | HLA-A*29:02 | F
DYRHYSASF | HLA-A*29:02 | T
LYNSTFFSTF | HLA-A*29:02 | T
NIDATSTGNY | HLA-A*29:02 | F
DSFKEELDKY | HLA-A*29:02 | T
KWADNNCYL | HLA-A*29:02 | F
SYSLFDMSKF | HLA-A*29:02 | T
NYMPYVFTLL | HLA-A*29:02 | T
QWSLFFFVY | HLA-A*29:02 | T
YFPREGVFVF | HLA-A*29:02 | T
GYQPYRVVVL | HLA-A*29:02 | F

----------
- experimental.system: HLA-A*03:01
- test.method.notes: IEDB peptide-MHC binding, purified MHC/direct/fluorescence; filed as Kd, often an IC50 or EC50 that approximates it; bounds were set here for any values at or beyond the usual limits of such assays
- assay.setup: source organism: Rickettsia bellii OSU 85-389
pKd: −log10 of the molar value.
observed.property: pKd

sequence.data | observed.property | value.observed
AKIALAVYK | pKd | ≤ 4.70

----------
As shown below, each of these sequences has a reported log10 Kd value.
- experimental.system: HLA-A*11:01
- test.method.notes: IEDB peptide-MHC binding, purified MHC/competitive/radioactivity; filed as Kd, often an IC50 or EC50 that approximates it; bounds were set here for any values at or beyond the usual limits of such assays
- assay.setup: source organism: Vaccinia virus WR
observed.property: log10 Kd (log10 of the value in nM)

sequence.data | observed.property | value.observed
LLGDSDSVAK | log10 Kd | 2.77
LTNKHCLNNY | log10 Kd | 3.32
ELVTRKCPQK | log10 Kd | 2.71
FLKSGAVVK | log10 Kd | 2.54
NFFTELENK | log10 Kd | 3.23
VLPHLCLDY | log10 Kd | 2.62
FSNTIQSYK | log10 Kd | 1.04
MMNRDKIPIY | log10 Kd | 3.58
WSRIGTAATK | log10 Kd | 3.03
NTMCTEETKR | log10 Kd | 3.81
ESRPFDLIKK | log10 Kd | 1.87
SINSEYIESK | log10 Kd | 1.74
TFFSYLMKDK | log10 Kd | 1.11
RLGLVLDDY | log10 Kd | 3.55
LAIKNYYRK | log10 Kd | 1.88
IVTSLAIKNY | log10 Kd | 1.71
DVKASMLEKY | log10 Kd | 3.69
NLDPDNKMSY | log10 Kd | 2.76
LMIFISSFLL | log10 Kd | 3.08
SIMETIDPVY | log10 Kd | 0.64
MSMGDIITY | log10 Kd | 0.75
YISRDELWAR | log10 Kd | 2.90
TQSVLCVKK | log10 Kd | 0.82
VSAKQLRTR | log10 Kd | 3.44
EVFGSTGDY | log10 Kd | 1.12
QFANVISKIY | log10 Kd | 3.94
KLQARNIQK | log10 Kd | 1.25
SSKGLACYR | log10 Kd | 1.91
FVDINRNNK | log10 Kd | 1.71
GADPNACDK | log10 Kd | 3.80
TISSESLVY | log10 Kd | 1.03
DSLLITNTK | log10 Kd | 2.82
RFVKFNDYR | log10 Kd | 4.17
FMEMFFDYNK | log10 Kd | 1.94
ETFKIDAVR | log10 Kd | 3.44
ISFKSINKVY | log10 Kd | 4.09
SFKSINKVY | log10 Kd | 3.44
LTALLSCIR | log10 Kd | 2.96
MIIGHIGHHY | log10 Kd | 2.01
